# assay text: Toxicity in CDF1 mouse allografted with mouse […] cells assessed as lethal dose administered for 6 days ,ip
# Assay type: cell-based
# condition label: in vivo, time 6 day
Some compounds, each annotated with its measured LD50 at 144 h.
All answers are understood in mg/kg, so give the number only.

1. CO[C@H]1/C=C/C=C/C=C/C[C@H](OC(=O)[C@@H](C)NC(=O)C2CCCCC2)[C@H](C)[C@@H](O)/C(C)=C\CCc2cc(O)cc(c2O)NC(=O)C1 ... 80

Consider the record given below.
Query :: Quick one: LD50 at 144 h for CO[C@H]1/C=C/C=C/C=C/C[C@H](OC(=O)[C@@H](C)NC(=O)C2CCCCC2)[C@H](C)[C@@H](O)/C(C)=C\CCC2=CC(=O)C=C(NC(=O)C1)C2=O ?
Result :: 56

---

# Test system: PC-3
# assay text: Antiproliferative activity against human PC-3 assessed as cell growth inhibition incubated for 48 hrs by Cell Counting Kit-8 assay
# Format: functional, cell-based
# condition label: PC-3, 48 h
result type: pIC50
# pIC50 = -log10(concentration in molar units)

Query :: Quick one: pIC50 for CO[C@@H]1CC(=O)Nc2c(O)c3cc4c2[C@H]1[C@@H](/C=C/C=C/C[C@H](OC(=O)[C@@H](C)NC(=O)C1CCCCC1)[C@H](C)[C@@H](O)/C(C)=C\CC3)O4 ?
Result :: 5.66

---

# Test system: PANC-1
# assay text: Antitumor activity against human PANC-1 cells assessed as cell growth inhibition incubated for 48 hrs by CCK-8 assay
# Format: functional, cell-based
# condition label: PANC-1, 48 h
result type: pIC50
# pIC50 = -log10(concentration in molar units)

1) CO[C@@H]1CC(=O)N2c3cc(O)cc4c3O[C@@H](/C=C/C=C/C[C@H](OC(=O)[C@@H](C)NC(=O)C3CCCCC3)[C@H](C)[C@@H](O)/C(C)=C\CC4)[C@H]12 ... 5.08

Query :: Under PANC-1: pIC50 value of CO[C@@H]1CC(=O)Nc2c(O)c3cc4c2[C@H](/C=C/C=C\C[C@H](OC(=O)[C@@H](C)NC(=O)C2CCCCC2)[C@H](C)[C@@H](O)/C(C)=C\CC3)[C@H]1O4 ?
Result :: 5.16

Query :: Under PANC-1: pIC50 value of CO[C@@H]1CC(=O)Nc2c(O)c3cc4c2[C@@H](/C=C/C=C/C[C@H](OC(=O)[C@@H](C)NC(=O)C2CCCCC2)[C@H](C)[C@@H](O)/C(C)=C\CC3)[C@@H]1O4 ?
Result :: 5.24

Query :: Under PANC-1: pIC50 value of CO[C@@H]1CC(=O)Nc2c(O)c3cc4c2[C@H](/C=C/C=C/C[C@H](OC(=O)[C@@H](C)NC(=O)C2CCCCC2)[C@H](C)[C@@H](O)/C(C)=C\CC3)[C@H]1O4 ?
Result :: 5.40

Query :: Under PANC-1: pIC50 value of CO[C@@H]1CC(=O)Nc2c(O)c3cc4c2[C@@H](/C=C/C=C/C[C@H](OC(=O)[C@@H](C)NC(=O)C2CCCCC2)[C@H](C)[C@@H](O)/C(C)=C\CC3)[C@H]1O4 ?
Result :: 5.33

Query :: Under PANC-1: pIC50 value of CO[C@@H]1CC(=O)Nc2c(O)c3cc4c2[C@H](/C=C/C=C/C[C@H](O)[C@H](C)[C@@H](OC(=O)[C@@H](C)NC(=O)C2CCCCC2)/C(C)=C\CC3)[C@H]1O4 ?
Result :: 5.11

---

# System: B16
# assay text: Antitumor activity against mouse B-16 cells
# Type: functional, cell-based
Some compounds, each annotated with its measured pIC50.
# pIC50 = -log10(concentration in molar units)

1. CO[C@H]1/C=C/C=C/C=C/C[C@H](OC(=O)C2(NC(=O)C3=CCCCC3)CC2)[C@H](C)[C@@H](O)/C(C)=C\CCc2c(O)c(cc3c2SCC(=O)N3)NC(=O)C1 ... 6.52

Consider the record given below.
Query :: Quick one: pIC50 for CO[C@H]1/C=C/C=C/C=C/C[C@H](OC(=O)C2(NC(=O)C3=CCCCC3)CC2)[C@H](C)[C@@H](O)/C(C)=C\CCc2cc3c(c(c2O)NC(=O)C1)SCC(=O)N3 ?
Result :: 7.30

---

# System: HL-60
# assay text: Induction of apoptosis in human HL-60 cells assessed as effective dose
# Assay type: functional
# condition label: read-out: ED50 (the source's name)
Some compounds, each annotated with its measured EC50.
All answers are understood in µM, so give the number only.

1) CO[C@H]1/C=C/C=C/C=C/C[C@H](OC(=O)C2(NC(=O)C3CCCCC3)CC2)[C@H](C)[C@@H](O)/C(C)=C\CCc2cc(O)cc(c2O)NC(=O)C1 ... 7.7

Query :: Quick one: EC50 for CO[C@H]1/C=C/C=C/C=C/C[C@H](OC(=O)C2(NC(=O)C3=CCCCC3)CC2)[C@H](C)[C@@H](O)/C(C)=C\CCc2cc(O)cc(c2O)NC(=O)C1 ?
Result :: 7.7

---

Some compounds, each annotated with its measured IC50.
# System: HepG2
# assay text: Antitumor activity against human HepG2 incubated for 48 hrs by MTT assay
# Assay type: functional, cell-based
# condition label: HepG2, 48 h
All answers are understood in µM, so give the number only.

1. CO[C@H]1/C=C/C=C/C=C/C[C@H](OC(=O)[C@@H](C)NC(=O)C2=CCCC2)[C@H](C)[C@@H](O)/C(C)=C\CCc2cc(O)cc(c2)NC(=O)C1 ... 6.74

Consider the record given below.
Query :: Under HepG2: IC50 value of CO[C@H]1/C=C/C=C/C=C/C[C@H](OC(=O)[C@@H](C)NC(=O)C2CCC2)[C@H](C)[C@@H](O)/C(C)=C\CCc2cc(O)cc(c2)NC(=O)C1 ?
Result :: 7.33

---

# System: A549
# assay text: Cytotoxicity against human A549 cells incubated for 72 hrs by MTT assay
# Format: functional, cell-based
# condition label: A549, 72 h
result type: pIC50
# pIC50 = -log10(concentration in molar units)

Query :: Quick one: pIC50 for CO[C@H]1/C=C/C=C/C=C/C[C@H](OC(=O)[C@@H](C)NC(C)=O)[C@H](C)[C@@H](O)/C(C)=C\CCc2cc(O)cc(c2)NC(=O)C1 ?
Result :: 4.82

---

# assay text: Cytotoxicity against human WI-38 cells assessed as cell growth incubated for 1 day by MTT assay
# Format: toxicity, cell-based
result type: IC50 at 1 day (nM)
All answers are understood in nM, so give the number only.

1) CO[C@H]1/C=C/C=C/C=C/C[C@H](OC(=O)C2(NC(=O)C3CCCCC3)CC2)[C@H](C)[C@@H](O)/C(C)=C\CCc2cc(O)cc(c2O)NC(=O)C1 ... 7.7

Consider the record given below.
Query :: Quick one: IC50 at 1 day for CO[C@H]1/C=C/C=C/C=C/C[C@H](OC(=O)C2(NC(=O)C3=CCCCC3)CC2)[C@H](C)[C@@H](O)/C(C)=C\CCc2cc(O)cc(c2O)NC(=O)C1 ?
Result :: 7.7

---

Some molecules, each annotated with its measured pIC50.
# Tested on: K562
# assay text: Antitumor activity against human K562 cells incubated for 24 hrs by CCK-8 assay
# Type: functional, cell-based
# condition label: K562, 24 h
pIC50: −log10 of the molar value.

Some entries whose results are on file:
1. CO[C@H]1/C=C/C=C/C=C/C[C@H](O)[C@H](C)[C@@H](O)/C(C)=C\CCc2cc(O)cc(c2)NC(=O)C1 ... < 5.00
2. CO[C@H]1/C=C/C=C/C=C/C[C@H](OC(C)=O)[C@H](C)[C@@H](O)/C(C)=C\CCc2cc(O)cc(c2)NC(=O)C1 ... < 5.00

Consider the record given below.
Query :: Quick one: pIC50 for CO[C@H]1/C=C/C=C/C=C/C[C@H](OC(=O)[C@@H](C)NC(C)=O)[C@H](C)[C@@H](O)/C(C)=C\CCc2cc(O)cc(c2)NC(=O)C1 ?
Result :: < 5.00

---

# Tested on: SW1990
# assay text: Antitumor activity against human SW1990 cells assessed as cell growth inhibition incubated for 48 hrs by CCK-8 assay
# Assay type: functional, cell-based
# condition label: SW1990, 48 h
result type: IC50 (µM)
All answers are understood in µM, so give the number only.

Some entries whose results are on file:
1) CO[C@@H]1CC(=O)N2c3cc(O)cc4c3O[C@@H](/C=C/C=C/C[C@H](OC(=O)[C@@H](C)NC(=O)C3CCCCC3)[C@H](C)[C@@H](O)/C(C)=C\CC4)[C@H]12 ... 8.29
2) CO[C@@H]1CC(=O)Nc2c(O)c3cc4c2[C@@H](/C=C/C=C/C[C@H](OC(=O)[C@@H](C)NC(=O)C2CCCCC2)[C@H](C)[C@@H](O)/C(C)=C\CC3)[C@@H]1O4 ... 5.81
3) CO[C@@H]1CC(=O)Nc2c(O)c3cc4c2[C@H](/C=C/C=C\C[C@H](OC(=O)[C@@H](C)NC(=O)C2CCCCC2)[C@H](C)[C@@H](O)/C(C)=C\CC3)[C@H]1O4 ... 6.9

Query :: Quick one: IC50 for CO[C@@H]1CC(=O)Nc2c(O)c3cc4c2[C@@H](/C=C/C=C/C[C@H](OC(=O)[C@@H](C)NC(=O)C2CCCCC2)[C@H](C)[C@@H](O)/C(C)=C\CC3)[C@H]1O4 ?
Result :: 4.73

Query :: Quick one: IC50 for CO[C@@H]1CC(=O)Nc2c(O)c3cc4c2[C@H](/C=C/C=C/C[C@H](O)[C@H](C)[C@@H](OC(=O)[C@@H](C)NC(=O)C2CCCCC2)/C(C)=C\CC3)[C@H]1O4 ?
Result :: 7.79

Query :: Quick one: IC50 for CO[C@@H]1CC(=O)Nc2c(O)c3cc4c2[C@H](/C=C/C=C/C[C@H](OC(=O)[C@@H](C)NC(=O)C2CCCCC2)[C@H](C)[C@@H](O)/C(C)=C\CC3)[C@H]1O4 ?
Result :: 3.99
